# Assay Procedure: Plasma pharmacokinetics in the phase I study
# Format: in vivo, human
# Condition Notes: human, plasma, oral, 300 mg/day, Part 1, Day 1 (single administration), 300 mg/day, n=3; read-out: Cmax Mean (SD)

| Smiles Code | Endpoint Unit | Cmax |
| --- | --- | --- |
| CNC(=O)c1cc2c(Oc3ccc(NC(=S)NC(=O)Cc4ccccc4)cc3F)ccnc2cc1OC | ng/mL | 3500 |
